For each entry below, report its inhibition at 20 µM value.
Molecular target: Rac-1 (Homo sapiens, UniProt P63000)
Construct: made in house
Test: Ras GTP Binding Domain Inhibition Assay (Ras Superfamily Assay)
Details: read-out: Rac-1: % inh.

inhibition at 20 µM measured on COc1ccnc(Nc2nc(-c3nccn3C)nn3cc(-c4ccn(C)n4)c(C(=O)NC4CC4)c23)c1 [Compound 175] = 26 to 49%

Per the records, this compound ( Cn1ccnc1-c1nc(NS(C)(=O)=O)c2c(-c3ccccc3)c(-c3ccccc3)cn2n1 [Compound 212] ) has inhibition at 20 µM equal to 50 to 75%

Measured inhibition at 20 µM of COc1nccc(Nc2nc(-c3nccn3C)nn3cc(-c4ccn(C(C)C)n4)c(C)c23)n1 [Compound 86] : 50 to 75%

Entry CO[C@H]1CC[C@@H](Nc2nc(-c3nccn3C)nn3cc(-c4ccn(C(C)C)n4)c(C)c23)C1 (racemic) [Compound 1] — recorded inhibition at 20 µM = 1 to 25%

Lab book: inhibition at 20 µM of COc1ccc(Nc2nc(-c3nccn3C)nn3cc(-c4ccn(C(C)C)n4)c(C)c23)cn1 [Compound 71] noted as 1 to 25%

compound Cn1ccnc1-c1nc(OCCN2CCCC2)c2c(-c3ccccc3)ccn2n1 [Compound 41] , inhibition at 20 µM observed: 0%

Form field inhibition at 20 µM, entry COc1cccc(-c2cn3nc(-c4nccn4C)nc(N[C@H]4C[C@H](OC)C4)c3c2-c2ccccn2)c1C [Compound 274] : 0%

For record COCCNC(=O)c1c(-c2ccn(C)n2)cn2nc(-c3nccn3C)nc(Nc3cc(OC)ccn3)c12 [Compound 176] the listed inhibition at 20 µM is 76 to 100%

So, COCCCNc1nc(-c2nccn2C)nn2cc(-c3cccc(OC)c3Cl)c(-c3ccccc3)c12 [Compound 30] ? Its inhibition at 20 µM was 0%

GET /value?item= Cc1c(-c2ccn(C3CC3)n2)cn2nc(-c3nccn3C)nc(Nc3cc(OC(F)(F)F)ccn3)c12 [Compound 138] &field=inhibition at 20 µM returns 50 to 75%

Recorded inhibition at 20 µM (compound COc1cccc(-c2cn3nc(-c4nccn4C)nc(N[C@H]4C[C@@H](OC)C4)c3c2-c2ccccc2)c1C [Compound 269] ): 26 to 49%

Measured inhibition at 20 µM, COC(=O)c1c(-c2ccn(C)n2)cn2nc(-c3nccn3C)nc(N[C@H]3CC[C@H](OC)C3)c12 (racemic) [Compound 180] : 1 to 25%

// inhibition at 20 µM lookup, compound = COc1ccc(F)c(-c2cn3nc(-c4nccn4C)nc(N[C@H]4C[C@H](OC)C4)c3c2-c2ccccc2)c1F [Compound 273] , result: 1 to 25%

inhibition at 20 µM measured on CCn1ccc(-c2cn3nc(-c4nccn4C)nc(Nc4cc(OC)ncn4)c3c2C)n1 [Compound 64] = 76 to 100%

Cc1c(-c2ccn(C)n2)cn2nc(-c3nccn3C)nc(Nc3cc(-c4cccnc4)ccn3)c12 [Compound 250] has a reported inhibition at 20 µM of 76 to 100%

---

Target: Rho-A (Homo sapiens, UniProt P61586)
Construct: made in house
Sequence (P61586 whole entry): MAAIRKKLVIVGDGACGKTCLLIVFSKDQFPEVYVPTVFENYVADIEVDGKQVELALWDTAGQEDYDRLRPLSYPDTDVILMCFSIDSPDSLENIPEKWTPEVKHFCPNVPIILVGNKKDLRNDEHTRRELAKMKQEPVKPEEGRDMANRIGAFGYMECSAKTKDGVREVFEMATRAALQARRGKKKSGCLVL
Assay: Ras GTP Binding Domain Inhibition Assay (Ras Superfamily Assay)
Conditions: read-out: Rho-A: % inh..
Observable: inhibition at 20 µM

What the record says about COc1cc(Nc2nc(-c3ccccn3)nn3cc(-c4ccn(C(C)C)n4)c(C)c23)ncn1 [Compound 13] : inhibition at 20 µM is 0%

Recorded inhibition at 20 µM (molecule COc1ccnc(Nc2nc(-c3nccn3C)nn3cc(-c4ccn(C(C)C)n4)c(C)c23)c1 [Compound 58] ): 76 to 100%

Sample COc1cccc(-c2cn3nc(-c4nccn4C)nc(N[C@H]4C[C@@H](OC)C4)c3c2-c2ccccc2)c1Cl [Compound 31] ; inhibition at 20 µM observed: 1 to 25%

response.value for Cc1c(-c2ccn(C(C)C)n2)cn2nc(-c3nccn3C)nc(Nc3nccn3C)c12 [Compound 93] (field: inhibition at 20 µM) = 76 to 100%

Per the record, COc1cc(Nc2nc(-c3nccn3C)nn3cc(-c4ccccn4)c(C)c23)ncn1 [Compound 94] has inhibition at 20 µM of 76 to 100%

// recorded inhibition at 20 µM for COc1cccc(-c2cn3nc(-c4nccn4C)nc(N[C@@H]4CC[C@@H](OC)C4)c3c2-c2ccccn2)c1F (racemic) [Compound 46] : 26 to 49%

The molecule identified as CO[C@H]1CC[C@@H](Nc2nc(-c3ccccn3)nn3cc(-c4ccn(C(C)C)n4)c(-c4ccccc4)c23)C1 (racemic) [Compound 24] registered its inhibition at 20 µM at 0%

The recorded inhibition at 20 µM for entry COc1cccc(-c2cn3nc(-c4nccn4C)nc(O)c3c2-c2ccccc2)c1Cl [Compound 28] equals 1 to 25%

COCCNc1nc(-c2nccn2C)nn2cc(-c3cccc(OC)c3Cl)c(-c3ccccc3)c12 [Compound 29] has a reported inhibition at 20 µM of 1 to 25%

Looking up COc1cccc(-c2cn3nc(-c4nccn4C)nc(N[C@@H]4CC[C@H](OC)C4)c3c2-c2ccccc2)c1Cl (racemic) [Compound 33] , I see its inhibition at 20 µM listed as 1 to 25%

inhibition at 20 µM recorded for this molecule, COC1CCCN(c2nc(-c3nccn3C)nn3cc(-c4ccn(C(C)C)n4)c(-c4ccccc4)c23)C1 (racemic) [Compound 21] , is 1 to 25%

Form: molecule = CC(C)n1ccc(-c2cn3nc(-c4nccn4C)nc(O)c3c2-c2ccccc2)n1 [Compound 17] ; inhibition at 20 µM = 76 to 100%

inhibition at 20 µM in this record for COC1CCCN(c2nc(-c3nccn3C)nn3cc(-c4ccn(C(C)C)n4)c(C)c23)C1 (racemic) [Compound 4] : 1 to 25%

Per the record, Cc1c(-c2ccn(C(C)C)n2)cn2nc(-c3nccn3C)nc(Nc3noc(C4CC4)n3)c12 [Compound 75] has inhibition at 20 µM of 50 to 75%

Recorded result, Cc1c(-c2ccn(C(C)C)n2)cn2nc(-c3nccn3C)nc(Nc3nnco3)c12 [Compound 59] , inhibition at 20 µM: 76 to 100%

Per the records, this molecule ( COc1cncnc1Nc1nc(-c2nccn2C)nn2cc(-c3ccn(C(C)C)n3)c(C)c12 [Compound 73] ) has inhibition at 20 µM equal to 76 to 100%

COc1cccc(Nc2nc(-c3ccccn3)nn3cc(-c4ccn(C(C)C)n4)c(C)c23)n1 [Compound 14] has a reported inhibition at 20 µM of 0%

Recorded inhibition at 20 µM (molecule COc1cc(Nc2nc(-c3nccn3C)nn3cc(-c4ccn(C)n4)c(C)c23)ncn1 [Compound 63] ): 76 to 100%

// sample COc1cccc(-c2cn3nc(-c4nccn4C)nc(N[C@@H]4CC[C@@H](OC)C4)c3c2-c2ccccc2)c1F (racemic) [Compound 43] , its inhibition at 20 µM was 1 to 25%

What the record says about Cn1ccnc1-c1nc(OCCN2CCCC2)c2c(-c3ccccc3)ccn2n1 [Compound 41] : inhibition at 20 µM is 0%

Recorded inhibition at 20 µM (molecule COc1cccc(Nc2nc(-c3nccn3C)nn3cc(-c4ccn(C(C)C)n4)c(C)c23)n1 [Compound 7] ): 0%

// field: inhibition at 20 µM; key: COc1cccc(-c2cn3nc(-c4nccn4C)nc(N[C@@H]4CC[C@@H](OC)C4)c3c2-c2ccccc2)c1Cl.Cl (racemic) [Compound 34, hydrochloride] ; value = 1 to 25%

---

Biological target: Rheb (Homo sapiens, UniProt Q15382)
Construct: made in house
Sequence (Q15382 whole entry): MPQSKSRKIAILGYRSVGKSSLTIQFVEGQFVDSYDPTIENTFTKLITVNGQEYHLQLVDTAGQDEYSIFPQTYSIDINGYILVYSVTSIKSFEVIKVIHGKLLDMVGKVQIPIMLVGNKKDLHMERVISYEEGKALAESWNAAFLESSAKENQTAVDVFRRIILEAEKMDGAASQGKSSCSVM
Test: Rheb GTP Binding Domain Inhibition Assay
Conditions: read-out: Rheb: % inh.
Experimental: Protocol for Cdc42 and Rheb GTP Binding Domain Inhibition Assay The following method was developed as specific assay for cdc42 and Rheb proteins. • 25 mM Tris-HCl, pH 7.4 • 27 mM KCl • 137 mM NaCl • 1 mM MgCl2 • 1 mM DTT Buffer-II: • 50 mM Tris-HCl, pH 7.0 • 1 mM MgCl2 • 1 mM DTT The small GTPases proteins cdc42 and Rheb were expressed as His-tagged proteins. […] Following washes, the amount of bound labeled-GTP was measured using a SpectraMax M3 (Molecular Devices).
Could you please report measured inhibition at 20 µM for the items listed next?

Note to self: inhibition at 20 µM recorded for "Cc1c(-c2ccn(C(C)C)n2)cn2nc(-c3nccn3C)nc(Nc3ccncc3)c12" was 0%

"COc1cc(Nc2nc(-c3nccn3C)nn3cc(-c4ccncc4)c(C)c23)ncn1" has a reported inhibition at 20 µM of 26 to 49%

Record summary for "COc1cccc(-c2cn3nc(-c4nccn4C)nc(N[C@H]4C[C@H](OC)C4)c3c2-c2ccccc2)c1Cl" : reported inhibition at 20 µM = 26 to 49%

Record "COc1cncnc1Nc1nc(-c2nccn2C)nn2cc(-c3ccn(C(C)C)n3)c(C)c12" . Reported inhibition at 20 µM: 50 to 75%

The compound identified as "COc1ccnc(Nc2nc(-c3nccn3C)nn3cc(-c4ccn(C(C)C)n4)c(C)c23)c1" registered its inhibition at 20 µM at 76 to 100%

# compound "COc1cc(Nc2nc(-c3nccn3C)nn3cc(-c4ccn(C(C)C)n4)c(C)c23)n[nH]1" ; its inhibition at 20 µM = 50 to 75%

"COc1cc(-c2cn3nc(-c4nccn4C)nc(Nc4cc(OC)ncn4)c3c2C)ccn1" has a reported inhibition at 20 µM of 26 to 49%

For this compound ( "Cc1c(-c2ccn(C(C)C)n2)cn2nc(-c3nccn3C)nc(Nc3ccn(C(C)C)n3)c12" ), measured inhibition at 20 µM is 50 to 75%

The compound "COc1cccc(-c2cn3nc(-c4nccn4C)nc(N[C@H]4C[C@H](OC)C4)c3c2-c2ccn(C)n2)c1F" showed inhibition at 20 µM equal to 1 to 25%

Briefly, inhibition at 20 µM measured for "COc1cccc(-c2cn3nc(-c4nccn4C)nc(N[C@H]4C[C@H](OC)C4)c3c2-c2ccccn2)c1F" : 50 to 75%

The value of inhibition at 20 µM measured for the compound "COc1cnc(Nc2nc(-c3nccn3C)nn3cc(-c4ccn(C(C)C)n4)c(C)c23)nc1" turned out to be 50 to 75%

Given item "COc1ccc(Nc2nc(-c3nccn3C)nn3cc(-c4ccn(C(C)C)n4)c(C)c23)cn1" , the value recorded as its inhibition at 20 µM is 1 to 25%
